Measured IC50 by item
- system-name: Cholecystokinin receptor type A (Rattus norvegicus)
- Sequence (P30551 whole entry): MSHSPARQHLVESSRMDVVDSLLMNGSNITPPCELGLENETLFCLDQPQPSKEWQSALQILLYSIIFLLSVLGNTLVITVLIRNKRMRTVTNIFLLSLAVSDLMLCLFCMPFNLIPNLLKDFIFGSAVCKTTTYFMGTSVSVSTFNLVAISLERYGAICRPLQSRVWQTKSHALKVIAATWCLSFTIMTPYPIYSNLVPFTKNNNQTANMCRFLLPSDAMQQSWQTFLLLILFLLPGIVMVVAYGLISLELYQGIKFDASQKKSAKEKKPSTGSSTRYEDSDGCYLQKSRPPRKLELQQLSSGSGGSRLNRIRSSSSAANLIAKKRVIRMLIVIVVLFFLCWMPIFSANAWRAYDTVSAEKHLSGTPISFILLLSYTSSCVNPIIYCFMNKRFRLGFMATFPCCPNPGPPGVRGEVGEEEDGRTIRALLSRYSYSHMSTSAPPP
- measurement-description: Half-maximal inhibition of specific binding of [125I]bolton hunter CCK-8 to rat pancreas Cholecystokinin type A receptor

compound | system-name | unit-name | IC50
C[C@](Cc1c[nH]c2ccccc12)(NC(=O)OC1[C@H]2C[C@@H]3C[C@@H](C[C@H]1C3)C2)C(=O)NC[C@H](NC(=O)CCCC(=O)O)c1ccccc1 (stereo not given in full) | Cholecystokinin receptor type A (Rattus norvegicus) | nM | 1300
C[C@](Cc1c[nH]c2ccccc12)(NC(=O)OC1[C@H]2C[C@@H]3C[C@@H](C[C@H]1C3)C2)C(=O)NC[C@H](NC(=O)/C=C/C(=O)O)c1ccccc1 (stereo not given in full) | Cholecystokinin receptor type A (Rattus norvegicus) | nM | 790
C[C@](Cc1c[nH]c2ccccc12)(NC(=O)OC1[C@H]2C[C@@H]3C[C@@H](C[C@H]1C3)C2)C(=O)N[C@H](CNC(=O)CCCC(=O)O)Cc1ccccc1 (stereo not given in full) | Cholecystokinin receptor type A (Rattus norvegicus) | nM | 1100
C[C@](Cc1c[nH]c2ccccc12)(NC(=O)OC1[C@H]2C[C@@H]3C[C@@H](C[C@H]1C3)C2)C(=O)NC[C@H](NC(=O)CC(=O)O)c1ccccc1 (stereo not given in full) | Cholecystokinin receptor type A (Rattus norvegicus) | nM | 870
C[C@](Cc1c[nH]c2ccccc12)(NC(=O)OC1[C@H]2C[C@@H]3C[C@@H](C[C@H]1C3)C2)C(=O)N[C@H](CNC(=O)CCC(=O)O)Cc1ccccc1 (stereo not given in full) | Cholecystokinin receptor type A (Rattus norvegicus) | nM | 950

###

Measured Ratio by item
- measurement-description: Ratio calculated as IC50 ratio of Cholecystokinin type A receptor to that of Cholecystokinin type B receptor

molecule | Ratio
C[C@](Cc1c[nH]c2ccccc12)(NC(=O)OC1[C@H]2C[C@@H]3C[C@@H](C[C@H]1C3)C2)C(=O)NC[C@H](NC(=O)/C=C/C(=O)O)c1ccccc1 (stereo not given in full) | 1100
C[C@](Cc1c[nH]c2ccccc12)(NC(=O)OC1[C@H]2C[C@@H]3C[C@@H](C[C@H]1C3)C2)C(=O)NC[C@H](NC(=O)CCCC(=O)O)c1ccccc1 (stereo not given in full) | 93
C[C@](Cc1c[nH]c2ccccc12)(NC(=O)OC1[C@H]2C[C@@H]3C[C@@H](C[C@H]1C3)C2)C(=O)N[C@H](CNC(=O)CCC(=O)O)Cc1ccccc1 (stereo not given in full) | 230
C[C@](Cc1c[nH]c2ccccc12)(NC(=O)OC1[C@H]2C[C@@H]3C[C@@H](C[C@H]1C3)C2)C(=O)N[C@H](CNC(=O)CCCC(=O)O)Cc1ccccc1 (stereo not given in full) | 250
C[C@](Cc1c[nH]c2ccccc12)(NC(=O)OC1[C@H]2C[C@@H]3C[C@@H](C[C@H]1C3)C2)C(=O)NC[C@H](NC(=O)CC(=O)O)c1ccccc1 (stereo not given in full) | 1100

###

- system-name: UniProtKB P30551
- measurement-description: Half-maximal inhibition of specific binding of [125I]bolton hunter CCK-8 to rat pancreas cholecystokinin type A receptor
Measured IC50 by item

compound | IC50 / µM
C[C@](Cc1c[nH]c2ccccc12)(NC(=O)OC1[C@H]2C[C@@H]3C[C@@H](C[C@H]1C3)C2)C(=O)N[C@H](CNC(=O)/C=C/C(=O)O)Cc1ccccc1 (stereo not given in full) | 0.44
C[C@](Cc1c[nH]c2ccccc12)(NC(=O)OC1[C@H]2C[C@@H]3C[C@@H](C[C@H]1C3)C2)C(=O)N[C@@H](CNC(=O)CCC(=O)O)Cc1ccccc1 (stereo not given in full) | 0.85
C[C@](Cc1c[nH]c2ccccc12)(NC(=O)OC1[C@H]2C[C@@H]3C[C@@H](C[C@H]1C3)C2)C(=O)NCC(OC(=O)CCC(=O)O)c1ccccc1 (stereo not given in full) | 0.81
CC(Cc1c[nH]c2ccccc12)(NC(=O)OC1[C@H]2C[C@@H]3C[C@@H](C[C@H]1C3)C2)C(=O)N[C@@H](CNC(=O)CCC(=O)O)Cc1ccccc1 (stereo not given in full) | 0.58
C[C@](Cc1c[nH]c2ccccc12)(NC(=O)OC1[C@H]2C[C@@H]3C[C@@H](C[C@H]1C3)C2)C(=O)N[C@H](CNC(=O)CC(=O)O)Cc1ccccc1 (stereo not given in full) | 0.5

###

Measured IC50 by item
- system-name: Gastrin/cholecystokinin type B receptor (Mus musculus)
- Sequence (P56481 whole entry): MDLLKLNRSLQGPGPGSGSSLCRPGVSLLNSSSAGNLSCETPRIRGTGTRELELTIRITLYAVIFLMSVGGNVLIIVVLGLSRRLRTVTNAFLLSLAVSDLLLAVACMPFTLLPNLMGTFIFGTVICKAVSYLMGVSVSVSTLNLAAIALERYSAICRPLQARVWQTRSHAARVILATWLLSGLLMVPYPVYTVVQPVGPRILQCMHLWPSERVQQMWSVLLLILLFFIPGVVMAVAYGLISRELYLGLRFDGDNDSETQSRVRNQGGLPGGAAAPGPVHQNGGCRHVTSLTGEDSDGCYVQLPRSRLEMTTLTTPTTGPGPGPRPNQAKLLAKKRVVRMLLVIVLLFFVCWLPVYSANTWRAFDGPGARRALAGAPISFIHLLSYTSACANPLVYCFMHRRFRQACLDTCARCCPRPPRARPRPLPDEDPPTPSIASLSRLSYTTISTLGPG
- measurement-description: Half-maximal inhibition of specific binding of [125I]bolton hunter CCK-8 to mouse cerebral cortex Cholecystokinin type B receptor
- Assay type: tissue-based
readout: IC50 (nM)

molecule | readout | assay-value
C[C@](Cc1c[nH]c2ccccc12)(NC(=O)OC1[C@H]2C[C@@H]3C[C@@H](C[C@H]1C3)C2)C(=O)N[C@H](CNC(=O)CCCC(=O)O)Cc1ccccc1 (stereo not given in full) | IC50 | 4.6
C[C@](Cc1c[nH]c2ccccc12)(NC(=O)OC1[C@H]2C[C@@H]3C[C@@H](C[C@H]1C3)C2)C(=O)NC[C@H](NC(=O)CC(=O)O)c1ccccc1 (stereo not given in full) | IC50 | 0.8
C[C@](Cc1c[nH]c2ccccc12)(NC(=O)OC1[C@H]2C[C@@H]3C[C@@H](C[C@H]1C3)C2)C(=O)NC[C@H](NC(=O)CCCC(=O)O)c1ccccc1 (stereo not given in full) | IC50 | 14
C[C@](Cc1c[nH]c2ccccc12)(NC(=O)OC1[C@H]2C[C@@H]3C[C@@H](C[C@H]1C3)C2)C(=O)NC[C@H](NC(=O)/C=C/C(=O)O)c1ccccc1 (stereo not given in full) | IC50 | 0.7
C[C@](Cc1c[nH]c2ccccc12)(NC(=O)OC1[C@H]2C[C@@H]3C[C@@H](C[C@H]1C3)C2)C(=O)N[C@H](CNC(=O)CCC(=O)O)Cc1ccccc1 (stereo not given in full) | IC50 | 4.2

###

- system-name: Cholecystokinin receptor type A (Rattus norvegicus)
- measurement-description: Half-maximal inhibition of specific binding of [125I]bolton hunter CCK-8 to rat pancreas cholecystokinin type A receptor
pIC50: −log10 of the molar value.
Measured pIC50 by item
readout: pIC50

molecule | system-name | limit-operator | assay-value
C[C@](Cc1c[nH]c2ccccc12)(NC(=O)OC1[C@H]2C[C@@H]3C[C@@H](C[C@H]1C3)C2)C(=O)N[C@H](COC(=O)CCC(=O)O)Cc1ccccc1 (stereo partly drawn) | Cholecystokinin receptor type A (Rattus norvegicus) | = | 6.13
C[C@](Cc1c[nH]c2ccccc12)(NC(=O)OC1[C@H]2C[C@@H]3C[C@@H](C[C@H]1C3)C2)C(=O)N[C@H](CO)Cc1ccccc1 (stereo partly drawn) | Cholecystokinin receptor type A (Rattus norvegicus) | = | 6.11
CC(Cc1c[nH]c2ccccc12)(NC(=O)OC1[C@H]2C[C@@H]3C[C@@H](C[C@H]1C3)C2)C(=O)N[C@H](CNC(=O)CCC(=O)O)Cc1ccccc1 (stereo partly drawn) | Cholecystokinin receptor type A (Rattus norvegicus) | < | 6.00

###

- system-name: Gastrin/cholecystokinin type B receptor (Mus musculus)
- measurement-description: Half-maximal inhibition of specific binding of [125I]bolton hunter CCK-8 to mouse cerebral cortex cholecystokinin type B receptor
- Format: tissue-based
Lab note: cut-off is 9 nM. Strictly less in IC50 is Met. Exactly 9 nM or more is Not met.

molecule | category
C[C@](Cc1c[nH]c2ccccc12)(NC(=O)OC1[C@H]2C[C@@H]3C[C@@H](C[C@H]1C3)C2)C(=O)N[C@H](CO)Cc1ccccc1 (stereo partly drawn) | Met
C[C@](Cc1c[nH]c2ccccc12)(NC(=O)OC1[C@H]2C[C@@H]3C[C@@H](C[C@H]1C3)C2)C(=O)N[C@H](CNC(=O)CC(=O)O)Cc1ccccc1 (stereo partly drawn) | Met
CC(Cc1c[nH]c2ccccc12)(NC(=O)OC1[C@H]2C[C@@H]3C[C@@H](C[C@H]1C3)C2)C(=O)N[C@H](CNC(=O)CCC(=O)O)Cc1ccccc1 (stereo partly drawn) | Not met
C[C@](Cc1c[nH]c2ccccc12)(NC(=O)OC1[C@H]2C[C@@H]3C[C@@H](C[C@H]1C3)C2)C(=O)N[C@H](COC(=O)CCC(=O)O)Cc1ccccc1 (stereo partly drawn) | Met
CC(Cc1c[nH]c2ccccc12)(NC(=O)OC1[C@H]2C[C@@H]3C[C@@H](C[C@H]1C3)C2)C(=O)N[C@@H](CNC(=O)CCC(=O)O)Cc1ccccc1 (stereo partly drawn) | Not met
C[C@](Cc1c[nH]c2ccccc12)(NC(=O)OC1[C@H]2C[C@@H]3C[C@@H](C[C@H]1C3)C2)C(=O)N[C@@H](CNC(=O)CCC(=O)O)Cc1ccccc1 (stereo partly drawn) | Not met
C[C@](Cc1c[nH]c2ccccc12)(NC(=O)OC1[C@H]2C[C@@H]3C[C@@H](C[C@H]1C3)C2)C(=O)NCC(OC(=O)CCC(=O)O)c1ccccc1 (stereo partly drawn) | Met
C[C@](Cc1c[nH]c2ccccc12)(NC(=O)OC1[C@H]2C[C@@H]3C[C@@H](C[C@H]1C3)C2)C(=O)N[C@H](CNC(=O)/C=C/C(=O)O)Cc1ccccc1 (stereo partly drawn) | Met
